Molecular target: T1, cynomolgus MCSP D3 (cynomolgus, UniProt Q6UVK1 1582-2224 (human entry))
T1 construct: also called cynomolgus homologue; not shown: C-terminal tag
T1 chain: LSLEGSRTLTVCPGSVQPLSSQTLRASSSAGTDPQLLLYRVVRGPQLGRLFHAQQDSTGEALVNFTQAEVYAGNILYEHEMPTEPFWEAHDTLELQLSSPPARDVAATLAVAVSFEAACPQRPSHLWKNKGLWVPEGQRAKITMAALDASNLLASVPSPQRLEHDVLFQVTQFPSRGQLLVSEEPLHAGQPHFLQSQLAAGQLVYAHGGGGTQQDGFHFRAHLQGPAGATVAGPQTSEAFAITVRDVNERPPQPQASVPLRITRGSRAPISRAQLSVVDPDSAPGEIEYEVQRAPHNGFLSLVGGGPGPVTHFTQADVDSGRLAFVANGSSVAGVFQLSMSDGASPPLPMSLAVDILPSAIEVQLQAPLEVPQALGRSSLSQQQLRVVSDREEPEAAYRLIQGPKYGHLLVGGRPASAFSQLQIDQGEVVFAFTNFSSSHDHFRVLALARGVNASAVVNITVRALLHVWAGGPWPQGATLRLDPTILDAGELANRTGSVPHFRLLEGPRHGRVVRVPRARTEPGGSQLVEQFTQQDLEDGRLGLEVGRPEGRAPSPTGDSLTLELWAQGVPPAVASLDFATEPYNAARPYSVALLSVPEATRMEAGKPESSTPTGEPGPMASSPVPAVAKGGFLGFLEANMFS
Test: SPR (ProteOn XPR36), IgG KD against parental M4-3/ML2
Procedure: Briefly, carboxymethylated dextran biosensor chips (CM5, GE Healthcare) were activated with N-ethyl-N′-(3-dimethylaminopropyl)-carbodiimide hydrochloride (EDC) and N-hydroxysuccinimide (NHS) according to the supplier's instructions. […] Association rates (kon) and dissociation rates (koff) were calculated using a simple one-to-one Langmuir binding model (ProteOn XPR36 Evaluation Software or Scrubber software (BioLogic)) by simultaneously fitting the association and dissociation sensorgrams. […]
reported.property: Comparative binding affinity - Fold increase over parent (fold)
Write the value in fold as a bare number.

input: Identify measured Comparative binding affinity - Fold increase over parent associated with M4-3/ML2 (C5/G3) (IgG) (antibody, V domains shown, Human IgG1 format) VH: QVQLQESGPGLVKPSQTLSLTCTVSGGSITSGYYWNWIRQHPGKGLEWIGYITYDGSNNYNPSLKSRVTISRDTSKNQFSLKLSSVTAADTAVYYCADFDYWGQGTLVTVSS VL: DIQMTQSPSSLSASVGDRVTITCRASRGIREYLNWYQQKPGKAPKLLIYYTGSLHSGVPSRFSGSGSGTDFTLTISSLQPEDFATYYCQQYSALPWTFGQGTKVEIK
output: 2

Now look at this one.
input: Identify measured Comparative binding affinity - Fold increase over parent associated with M4-3(C1)/ML2 (IgG) (antibody, V domains shown, Human IgG1 format) VH: QVQLQESGPGLVKPSQTLSLTCTVSGGSITSGYYWNWIRQHPGKGLEWIGYITFDGSNNYNPSLKSRVTISRDTSKNQFSLKLSSVTAADTAVYYCADFDYWGQGTLVTVSS VL: DIQMTQSPSSLSASVGDRVTITCRASQGIRNYLNWYQQKPGKAPKLLIYYTSSLHSGVPSRFSGSGSGTDFTLTISSLQPEDFATYYCQQYSKLPWTFGQGTKVEIK
output: 2.5
